tgt: Nuclear factor NF-kappa-B complex (Homo sapiens) (UniProt Q00653+P19838+Q04206)
Sequence (P19838 whole entry, looked up): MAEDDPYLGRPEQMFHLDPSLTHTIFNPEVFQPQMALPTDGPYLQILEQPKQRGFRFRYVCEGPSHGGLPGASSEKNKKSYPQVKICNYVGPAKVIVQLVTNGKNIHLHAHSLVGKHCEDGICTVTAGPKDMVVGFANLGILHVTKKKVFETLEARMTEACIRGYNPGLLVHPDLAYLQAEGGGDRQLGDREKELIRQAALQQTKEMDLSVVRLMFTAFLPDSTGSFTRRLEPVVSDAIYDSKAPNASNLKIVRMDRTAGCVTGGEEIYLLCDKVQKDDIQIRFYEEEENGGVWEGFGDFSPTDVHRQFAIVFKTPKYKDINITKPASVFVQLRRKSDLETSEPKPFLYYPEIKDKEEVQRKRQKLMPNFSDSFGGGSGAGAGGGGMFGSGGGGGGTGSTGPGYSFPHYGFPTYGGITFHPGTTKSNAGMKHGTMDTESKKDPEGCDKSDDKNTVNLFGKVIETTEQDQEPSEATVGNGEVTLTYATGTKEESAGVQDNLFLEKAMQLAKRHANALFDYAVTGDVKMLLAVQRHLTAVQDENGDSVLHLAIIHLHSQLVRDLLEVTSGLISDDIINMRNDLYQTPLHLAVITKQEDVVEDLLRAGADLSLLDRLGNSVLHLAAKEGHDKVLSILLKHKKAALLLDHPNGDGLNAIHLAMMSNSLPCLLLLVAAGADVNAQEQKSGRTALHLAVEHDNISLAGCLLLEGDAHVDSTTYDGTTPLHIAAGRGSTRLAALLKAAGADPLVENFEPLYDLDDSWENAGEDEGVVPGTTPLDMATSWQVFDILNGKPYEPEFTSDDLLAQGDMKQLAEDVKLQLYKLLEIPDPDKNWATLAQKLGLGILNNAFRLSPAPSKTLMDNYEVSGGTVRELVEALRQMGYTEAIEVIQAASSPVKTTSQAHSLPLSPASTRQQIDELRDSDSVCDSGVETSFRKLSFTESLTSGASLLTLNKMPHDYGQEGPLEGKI
Sequence (Q00653 whole entry, looked up): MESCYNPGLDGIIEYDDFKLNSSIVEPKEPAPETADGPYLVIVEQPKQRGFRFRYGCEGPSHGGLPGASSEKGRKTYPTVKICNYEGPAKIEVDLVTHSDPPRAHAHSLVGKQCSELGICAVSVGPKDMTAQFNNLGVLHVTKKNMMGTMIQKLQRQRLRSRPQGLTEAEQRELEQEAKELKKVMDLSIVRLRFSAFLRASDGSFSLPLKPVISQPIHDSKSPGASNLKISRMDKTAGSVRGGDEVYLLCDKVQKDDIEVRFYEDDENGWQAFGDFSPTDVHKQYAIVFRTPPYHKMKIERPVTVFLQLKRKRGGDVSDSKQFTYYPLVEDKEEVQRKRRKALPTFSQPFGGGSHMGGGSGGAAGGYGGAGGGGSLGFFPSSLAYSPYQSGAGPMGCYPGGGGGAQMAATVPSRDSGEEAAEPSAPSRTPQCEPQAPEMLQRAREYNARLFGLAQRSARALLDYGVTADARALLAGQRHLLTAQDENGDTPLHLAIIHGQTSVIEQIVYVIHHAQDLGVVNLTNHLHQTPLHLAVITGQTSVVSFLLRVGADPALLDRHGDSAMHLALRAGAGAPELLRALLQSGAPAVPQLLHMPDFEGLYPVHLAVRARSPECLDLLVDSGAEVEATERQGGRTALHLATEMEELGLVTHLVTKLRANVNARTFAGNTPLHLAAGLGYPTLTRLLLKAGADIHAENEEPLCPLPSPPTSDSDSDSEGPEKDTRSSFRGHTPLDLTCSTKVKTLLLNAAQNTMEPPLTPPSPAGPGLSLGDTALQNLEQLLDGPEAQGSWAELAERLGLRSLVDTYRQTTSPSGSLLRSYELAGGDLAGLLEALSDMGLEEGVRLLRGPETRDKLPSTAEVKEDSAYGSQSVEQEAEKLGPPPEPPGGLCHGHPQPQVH
Sequence (Q04206 whole entry, looked up): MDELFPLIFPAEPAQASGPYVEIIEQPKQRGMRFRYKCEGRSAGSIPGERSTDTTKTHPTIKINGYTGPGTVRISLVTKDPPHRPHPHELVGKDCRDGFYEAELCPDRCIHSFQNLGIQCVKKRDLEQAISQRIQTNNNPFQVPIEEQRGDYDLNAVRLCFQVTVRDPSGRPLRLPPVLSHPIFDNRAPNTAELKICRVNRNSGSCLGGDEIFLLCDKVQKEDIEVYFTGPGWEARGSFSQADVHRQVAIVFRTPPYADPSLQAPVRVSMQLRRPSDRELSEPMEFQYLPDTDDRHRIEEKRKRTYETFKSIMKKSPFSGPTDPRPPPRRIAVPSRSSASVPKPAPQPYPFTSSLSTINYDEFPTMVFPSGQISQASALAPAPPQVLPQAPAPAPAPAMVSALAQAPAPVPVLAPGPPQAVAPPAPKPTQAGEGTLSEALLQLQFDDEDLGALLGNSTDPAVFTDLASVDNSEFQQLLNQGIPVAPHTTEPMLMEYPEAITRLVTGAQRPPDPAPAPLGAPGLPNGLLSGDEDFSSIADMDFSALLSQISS
protocol.notes: Inhibition of LPS-induced NF-kappaB (unknown origin) expressed in HEK293 cells at 100 ug/ml after 4 hrs by luciferase reporter gene assay relative to LPS-treated control
Assay type: cell-based
API: label(entry) gives y if the entry's Ratio is strictly smaller than 0.3; on equality or larger values it gives n.

Query: Does this compound meet the criterion Ratio < 0.3? CCC12C[C@@H]3[C@](C)([C@@H](OC(C)=O)c4ccoc4)[C@@H](O)[C@@H](O)[C@@]4(O)[C@]3(O1)[C@H](O2)[C@@]1(OC(C)=O)[C@@H](OC(C)=O)[C@@]2(C)C[C@@]1(O)[C@]41COC(=O)C[C@@H]21
Reply: n

Query: Does this compound meet the criterion Ratio < 0.3? COC(=O)C[C@H]1[C@]2(C)C[C@]3(O)[C@@](O)([C@H]4OC(C)=C[C@@H]5[C@](C)([C@@H](OC(C)=O)c6ccoc6)[C@@H](OC(C)=O)[C@@H](OC(C)=O)[C@]6(OC(=O)O[C@]546)[C@]13C)[C@H]2O
Reply: n

Query: Does this compound meet the criterion Ratio < 0.3? COC(=O)C[C@H]1[C@]2(C)C[C@@]34OC5(C)O[C@]6([C@@H]7/C(=C(\C)O)C(=O)O[C@@H](c8ccoc8)[C@]7(C)[C@@H](OC(C)=O)[C@@H](O)[C@]6(O5)[C@]13COC(C)=O)[C@H](OC(C)=O)[C@@]4(OC(C)=O)[C@H]2OC(C)=O
Reply: n

Query: Does this compound meet the criterion Ratio < 0.3? CC/C(O)=C1/C(=O)O[C@@H]2[C@@]3(O)[C@@H](OC(C)=O)[C@@]4(C)C[C@]35OC3(C)O[C@]26[C@H]1[C@](C)([C@@H](OC(C)=O)c1ccoc1)[C@@H](OC(C)=O)[C@@H](OC(C)=O)[C@]6(O3)[C@]5(COC(C)=O)[C@H]4CC(=O)OC
Reply: n

Query: Does this compound meet the criterion Ratio < 0.3? COC(=O)[C@H](OC(C)=O)[C@H]1[C@]2(C)C[C@]3(O)[C@@](OC(=O)C(C)C)([C@H]4OC5(C)O[C@@]6([C@H](O)[C@H](OC(C)=O)[C@]78C[C@]7([C@@H](OC(C)=O)C(=O)O[C@H]8c7ccoc7)[C@@]46O5)[C@]13C)[C@H]2OC(C)=O
Reply: y

Query: Does this compound meet the criterion Ratio < 0.3? COC(=O)[C@H](OC(C)=O)[C@H]1[C@]2(C)C[C@]3(O)[C@@](OC(=O)C(C)C)([C@H]4OC5(C)O[C@@]6([C@H](O)[C@H](O)[C@]78C[C@]7([C@@H](OC(C)=O)C(=O)O[C@H]8c7ccoc7)[C@@]46O5)[C@]13C)[C@H]2OC(C)=O
Reply: n

Query: Does this compound meet the criterion Ratio < 0.3? CCC1=C[C@@H]2[C@](C)([C@@H](OC(C)=O)c3ccoc3)[C@@H](OC(C)=O)[C@@H](OC(C)=O)[C@@]34OC(=O)O[C@@]23[C@H](O1)[C@@]1(O)[C@@H](O)[C@@]2(C)C[C@@]1(O)[C@@]4(C)[C@H]2CC(=O)OC
Reply: y

Query: Does this compound meet the criterion Ratio < 0.3? COC(=O)C[C@H]1[C@]2(C)C[C@]3(O)[C@@](O)([C@@H](OC(=O)C(C)C)[C@]45OC6(C)O[C@H]([C@H](OC(C)=O)[C@]78C[C@@]74[C@@H](OC(C)=O)C(=O)O[C@H]8c4ccoc4)[C@]5(O6)[C@]13C)[C@H]2OC(C)=O
Reply: n

* * *

tgt: Nuclear factor NF-kappa-B complex (Homo sapiens) (UniProt Q00653+P19838+Q04206)
protocol.notes: Inhibition of LPS-induced NF-kappaB (unknown origin) expressed in HEK293 cells at 1 ug/ml after 4 hrs by luciferase reporter gene assay relative to LPS-treated control
Assay type: cell-based
reported.endpoint: Ratio
Just the number, please, no unit attached.

Record excerpt, results attached:
>  <compound.structure>
COC(=O)[C@H](OC(C)=O)[C@H]1[C@]2(C)C[C@]3(O)[C@@](O)([C@H]4OC(=O)[C@@H]5O[C@@H](c6ccoc6)[C@@]67C[C@@]56[C@]4(O)[C@](O)([C@H](OC(=O)C(C)C)[C@@H]7OC(C)=O)[C@]13C)[C@H]2OC(C)=O

>  <tgt>
Nuclear factor NF-kappa-B complex (Homo sapiens) (UniProt Q00653+P19838+Q04206)

>  <Ratio>
0.14

$$$$
>  <compound.structure>
COC(=O)C[C@H]1[C@]2(C)C[C@@]34OC5(C)O[C@]6([C@@H]7/C(=C(\C)O)C(=O)O[C@@H](c8ccoc8)[C@]7(C)[C@@H](OC(C)=O)[C@@H](O)[C@]6(O5)[C@]13COC(C)=O)[C@H](OC(C)=O)[C@@]4(OC(C)=O)[C@H]2OC(C)=O

>  <tgt>
Nuclear factor NF-kappa-B complex (Homo sapiens) (UniProt Q00653+P19838+Q04206)

>  <Ratio>
0.25

$$$$
>  <compound.structure>
CC/C(O)=C1/C(=O)O[C@@H]2[C@@]3(O)[C@@H](OC(C)=O)[C@@]4(C)C[C@]35OC3(C)O[C@]26[C@H]1[C@](C)([C@@H](OC(C)=O)c1ccoc1)[C@@H](OC(C)=O)[C@@H](O)[C@]6(O3)[C@]5(COC(C)=O)[C@H]4CC(=O)OC

>  <tgt>
Nuclear factor NF-kappa-B complex (Homo sapiens) (UniProt Q00653+P19838+Q04206)

>  <Ratio>
0.23

$$$$

Query compound follows.
Query: API: value(readout=Ratio, system=Nuclear factor NF-kappa-B complex (Homo sapiens) (UniProt Q00653+P19838+Q04206)) for record CC/C(O)=C1/C(=O)O[C@@H]2[C@@]3(O)[C@@H](OC(C)=O)[C@@]4(C)C[C@]35OC3(C)O[C@]26[C@H]1[C@](C)([C@@H](OC(C)=O)c1ccoc1)[C@@H](OC(C)=O)[C@@H](OC(C)=O)[C@]6(O3)[C@]5(COC(C)=O)[C@H]4CC(=O)OC
Reply: 0.13

* * *

tgt: Nuclear factor NF-kappa-B complex (Homo sapiens) (UniProt Q00653+P19838+Q04206)
protocol.notes: Inhibition of LPS-induced NF-kappaB (unknown origin) expressed in HEK293 cells at 1 ug/ml after 4 hrs by luciferase reporter gene assay relative to LPS-treated control
Assay type: cell-based
Consider the following compounds and their measured Ratio readings.

>  <compound.structure>
CCC12C[C@@H]3[C@](C)([C@@H](OC(C)=O)c4ccoc4)[C@@H](OC(C)=O)[C@@H](OC(C)=O)[C@@]4(O)[C@]3(O1)[C@H](O2)[C@@]1(O)[C@@H](OC(C)=O)[C@@]2(C)C[C@@]1(O)[C@@]4(C)[C@H]2CC(=O)OC

>  <result>
0.12

$$$$

Query compound follows.
Query: API: value(readout=Ratio, system=Nuclear factor NF-kappa-B complex (Homo sapiens) (UniProt Q00653+P19838+Q04206)) for record COC(=O)[C@H](OC(C)=O)[C@H]1[C@]2(C)C[C@]3(O)[C@@](OC(=O)C(C)C)([C@H]4OC5(C)O[C@@]6([C@H](O)[C@H](OC(C)=O)[C@]78C[C@]7([C@@H](OC(C)=O)C(=O)O[C@H]8c7ccoc7)[C@@]46O5)[C@]13C)[C@H]2OC(C)=O
Reply: 0.13

* * *

tgt: Nuclear factor NF-kappa-B complex (Homo sapiens) (UniProt Q00653+P19838+Q04206)
protocol.notes: Inhibition of LPS-induced NF-kappaB (unknown origin) expressed in HEK293 cells at 1 ug/ml after 4 hrs by luciferase reporter gene assay relative to LPS-treated control
Assay type: cell-based
reported.endpoint: Ratio

>  <compound.structure>
COC(=O)C[C@H]1[C@]2(C)C[C@]3(O)[C@@](O)([C@H]4OC(C)=C[C@@H]5[C@](C)([C@@H](OC(C)=O)c6ccoc6)[C@@H](OC(C)=O)[C@@H](OC(C)=O)[C@]6(OC(=O)O[C@]546)[C@]13C)[C@H]2O

>  <Ratio>
0.69

$$$$
>  <compound.structure>
CCC12C[C@@H]3[C@](C)([C@@H](OC(C)=O)c4ccoc4)[C@@H](O)[C@@H](O)[C@@]4(O)[C@]3(O1)[C@H](O2)[C@@]1(OC(C)=O)[C@@H](OC(C)=O)[C@@]2(C)C[C@@]1(O)[C@]41COC(=O)C[C@@H]21

>  <Ratio>
0.33

$$$$

Query: Quick check: Ratio of CC(=O)O[C@@H]1[C@H](OC(C)=O)[C@@](C)([C@@H](OC(C)=O)c2ccoc2)[C@H]2CC3(C)O[C@@H]4[C@@]5(OC(C)=O)[C@@H](OC(C)=O)[C@@]6(C)C[C@@]5(O)[C@]5(COC(=O)C[C@@H]65)[C@]1(O)[C@@]24O3 ?
Reply: 0.25
